Where these numbers come from: patent US20210388087A1

- Assayed Target: T1, CD3 epsilon homodimer protein (UniProt P07766 23-126)
- T1 construct: also called CD3 (CD3 epsilon)
- T1 sequence (P07766 23-126): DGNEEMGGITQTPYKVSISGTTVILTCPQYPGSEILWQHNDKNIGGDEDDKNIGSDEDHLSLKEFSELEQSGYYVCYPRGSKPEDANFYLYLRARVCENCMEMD
- Assay Explanation: SPR, antibody over immobilised CD3e homodimer;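 note: SPR at 25 °C with CD3 epsilon homodimer amine-coupled to a CM4 sensor chip and antibody flowed over as analyte in HBS-EP+ running buffer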
Attribute Measured: KD ratio to GLS3000
The answer should be a number; do not append a unit.

{"columns": ["Binder", "KD ratio to GLS3000"],
 "data": [
  ["CE115HA000/GLS3000 H34M (antibody, IgG1, name in Kabat numbering, V domains shown, one-arm IgG1) VH: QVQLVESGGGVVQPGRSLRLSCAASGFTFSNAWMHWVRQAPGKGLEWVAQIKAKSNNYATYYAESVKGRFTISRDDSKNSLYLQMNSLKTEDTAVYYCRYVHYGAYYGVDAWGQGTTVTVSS VL: DIVMTQSPLSLPVTPGEPASISCRSSQSLVHSNRNTYLMWYQQKPGQAPRLLIYKVSNRFSGVPDRFSGSGSGTDFTLKISRVEAEDVGVYYCGQGTQVPYTFGQGTKLEIK", 3.16]
]}

Continue with the binder presented below.
Inquiry: Recorded KD ratio to GLS3000 for CE115HA000/GLS3000 N53Q (antibody, IgG1, name in Kabat numbering, V domains shown, one-arm IgG1) VH: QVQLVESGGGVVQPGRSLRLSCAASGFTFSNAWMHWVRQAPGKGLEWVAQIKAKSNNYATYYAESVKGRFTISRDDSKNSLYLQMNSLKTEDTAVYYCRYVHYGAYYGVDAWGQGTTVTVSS VL: DIVMTQSPLSLPVTPGEPASISCRSSQSLVHSNRNTYLHWYQQKPGQAPRLLIYKVSQRFSGVPDRFSGSGSGTDFTLKISRVEAEDVGVYYCGQGTQVPYTFGQGTKLEIK , please?
Reply text: 1.28
